# system: PDGF-BB (mature B-chain homodimer) (Homo sapiens, UniProt P01127 P01127:82-190)
# Sequence (P01127 82-190, one chain of several): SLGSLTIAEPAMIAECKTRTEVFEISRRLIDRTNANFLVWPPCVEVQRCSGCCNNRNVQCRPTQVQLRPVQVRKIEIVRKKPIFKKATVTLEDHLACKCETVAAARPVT
# experiment.description: inhibition; 125I-PDGF-BB binding to alpha-receptor on PAE cells, 4 C
# recorded.conditions: tags: R&D Systems, expressed in E. coli, carrier-free; chain copies: 2 B-chains (stated as BB isoform); three-way helix junction
pIC50: −log10 of the molar value.
// pIC50 lookup, one value per entry

The examples below pair each entry with its known result.
- binder: "TACTCAGGGCACTGCAAGCAATTGTGGTCCCAATGGGCTGAGTAT (ssDNA, 3'-3' inverted T at nt 45) [41t]"
  pIC50: "~9.00"
- binder: "TGGGAGGGCGCGTTCTTCGTGGTTACTTTTAGTCCCGT (ssDNA, 3'-3' inverted T at nt 38) [20t]"
  pIC50: "~9.00"

Consider now this further binder.
Q. Can you share its pIC50? I mean this binder: CACAGGCTACGGCACGTAGAGCATCACCATGATCCTGTGT (ssDNA, 3'-3' inverted T at nt 40) [36t]
A. ~9.00

Where these numbers come from: patent US20030036642
